meta.source: ChEMBL document CHEMBL5131406

- Test system: Staphylococcus aureus
- TEST METHOD NOTES: Antibacterial activity against Staphylococcus aureus
- Type: functional
ASSAY METRIC: MIC

> print(dat)
                                 test.smiles  assay.metric  recorded.measurement
 1  O=C(Cn1cc(CCn2cc(C3CC3)nn2)nn1)Nc1ccc(NC(=O)Cn2cc(CCn3cc(C4CC4)nn3)nn2)cc1           MIC              64 µg/mL
 2  CC(C)CCc1cn(CC(=O)Nc2ccc(NC(=O)Cn3cc(CCC(C)C)nn3)cc2)nn1           MIC              64 µg/mL
 3  CC(C)CCc1cn(CCc2cn(CC(=O)Nc3ccc(NC(=O)Cn4cc(CCn5cc(CCC(C)C)nn5)nn4)cc3)nn2)nn1           MIC              32 µg/mL
 4  O=C(Cn1cc(CCn2cc(CCc3ccccc3)nn2)nn1)Nc1ccc(NC(=O)Cn2cc(CCn3cc(CCc4ccccc4)nn3)nn2)cc1           MIC              64 µg/mL
 5  CC1(C)S[C@@H]2[C@H](NC(=O)[C@H](N)c3ccccc3)C(=O)N2[C@H]1C(=O)O           MIC               1 µg/mL
 6  O=C(Cn1cc(CCn2cc(-c3ccccc3)nn2)nn1)Nc1ccc(NC(=O)Cn2cc(CCn3cc(-c4ccccc4)nn3)nn2)cc1           MIC              64 µg/mL
 7  CCOC(=O)c1cn(CCc2cn(CC(=O)Nc3ccc(NC(=O)Cn4cc(CCn5cc(C(=O)OCC)nn5)nn4)cc3)nn2)nn1           MIC              32 µg/mL
 8  O=C(Cn1cc(C2CC2)nn1)Nc1ccc(NC(=O)Cn2cc(C3CC3)nn2)cc1           MIC             128 µg/mL
 9  O=C(Cn1cc(CCBr)nn1)Nc1ccc(NC(=O)Cn2cc(CCBr)nn2)cc1           MIC              64 µg/mL
10  [N-]=[N+]=NCCc1cn(CC(=O)Nc2ccc(NC(=O)Cn3cc(CCN=[N+]=[N-])nn3)cc2)nn1           MIC              64 µg/mL
11  CCOC(=O)c1cn(CC(=O)Nc2ccc(NC(=O)Cn3cc(C(=O)OCC)nn3)cc2)nn1           MIC              32 µg/mL
12  O=C(Cn1cc(CCn2cc(CC3CCCCC3)nn2)nn1)Nc1ccc(NC(=O)Cn2cc(CCn3cc(CC4CCCCC4)nn3)nn2)cc1           MIC              64 µg/mL
13  O=C(Cn1cc(CCn2cc(C3CCCC3)nn2)nn1)Nc1ccc(NC(=O)Cn2cc(CCn3cc(C4CCCC4)nn3)nn2)cc1           MIC              16 µg/mL
14  O=C(Cn1cc(C2CCCC2)nn1)Nc1ccc(NC(=O)Cn2cc(C3CCCC3)nn2)cc1           MIC              64 µg/mL
15  O=C(Cn1cc(CCn2cc(CCBr)nn2)nn1)Nc1ccc(NC(=O)Cn2cc(CCn3cc(CCBr)nn3)nn2)cc1           MIC              64 µg/mL
16  O=C(Cn1cc(CC2CCCCC2)nn1)Nc1ccc(NC(=O)Cn2cc(CC3CCCCC3)nn2)cc1           MIC              64 µg/mL
17  O=C(Cn1cc(CCc2ccccc2)nn1)Nc1ccc(NC(=O)Cn2cc(CCc3ccccc3)nn2)cc1           MIC              32 µg/mL
18  O=C(Cn1cc(-c2ccccc2)nn1)Nc1ccc(NC(=O)Cn2cc(-c3ccccc3)nn2)cc1           MIC              64 µg/mL
